assay: Maximum time to achieve plasma concentration at a dose of 3 mg/Kg in dog when given orally; type: ADME, organism-based, Canis lupus familiaris; details: po
measureName: Tmax (h)

[[record]]
chemicalstructure = "O[C@@H]1[C@H](O)CO[C@H]1n1cc(-c2ccccc2)c2c(Nc3ccc(F)cc3)ncnc21"
observedvalue = 1.6


* * *

assay: Maximum plasma concentration at a dose of 1 mg/kg in dog when given i.v.; assay type: ADME, organism-based, Canis lupus familiaris; parameters: dose 1 mg/kg, route intravenous; conditions: iv
measureName: Cmax (ng/mL)

[[record]]
chemicalstructure = "O[C@@H]1[C@H](O)CO[C@H]1n1cc(-c2ccccc2)c2c(Nc3ccc(F)cc3)ncnc21"
unitstring = "ng/mL"
observedvalue = 585


The reported measurements were obtained from ChEMBL document CHEMBL1141114.
